# TARGET SYSTEM: NK2 (Homo sapiens)
# Sequence (P21452 1-398): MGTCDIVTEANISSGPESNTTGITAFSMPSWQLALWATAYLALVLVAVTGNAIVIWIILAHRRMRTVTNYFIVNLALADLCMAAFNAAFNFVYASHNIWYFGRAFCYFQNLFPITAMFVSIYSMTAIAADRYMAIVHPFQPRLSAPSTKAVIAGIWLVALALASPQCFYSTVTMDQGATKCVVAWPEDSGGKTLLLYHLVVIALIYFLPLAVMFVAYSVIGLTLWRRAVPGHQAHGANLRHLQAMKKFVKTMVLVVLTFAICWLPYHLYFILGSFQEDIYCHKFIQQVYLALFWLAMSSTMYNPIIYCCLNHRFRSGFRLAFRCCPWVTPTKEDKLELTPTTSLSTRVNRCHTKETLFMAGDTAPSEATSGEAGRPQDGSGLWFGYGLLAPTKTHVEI
# PROTOCOL SUMMARY: Signal transduction (ST), intracellular Ca++ (FLIPR), NK2
# Format: cell-based
# EXPERIMENTAL SETUP: read-out: pIC50 NK2 (converted)
# Protocol: [The procedure below names another target; the source lists this target under the same test.] This test evaluates in vitro functional NK1 antagonistic activity. For the measurements of intracellular Ca^++ concentrations the cells were grown on 96-well (black wall/transparent bottom) plates from Costar for 2 days until they reached confluence. […] The cells were preincubated with a concentration range of antagonists for 20 min at RT and Ca^++-signals after addition of the agonists were measured in a Fluorescence Image Plate Reader (FLIPR from Molecular Devices, Crawley, England). […]
Quick reference: IC50 of the listed items.
EXPERIMENTAL READOUT: IC50 (nM)

[[record]]
compound = "O=C(C1CCOC1)N1CCC(N2CCN(C3CCN(C(=O)c4cc(C(F)(F)F)cc(C(F)(F)F)c4)C(Cc4ccc(Cl)c(Cl)c4)C3)CC2)C1 (single isomer, unassigned) [Compound 331]"
experimental_readout = "IC50"
numeric_result = 2000

[[record]]
compound = "O=C(c1ccccc1Cl)N1CC[C@@H](N2CCN([C@H]3CCN(C(=O)c4cc(C(F)(F)F)cc(C(F)(F)F)c4)[C@H](Cc4ccc(Cl)c(Cl)c4)C3)CC2)C1"
experimental_readout = "IC50"
numeric_result = 1000

[[record]]
compound = "CC(C)(C)C(=O)N1CCCCC1C(=O)N1CCC(N2CCN([C@H]3CCN(C(=O)c4cc(C(F)(F)F)cc(C(F)(F)F)c4)[C@H](Cc4ccccc4)C3)CC2)C1 (some centres unmarked)"
experimental_readout = "IC50"
numeric_result = 2510

[[record]]
compound = "O=C(C1CC1)N1CCC(N2CCN(C3CCN(C(=O)c4cc(C(F)(F)F)cc(C(F)(F)F)c4)C(Cc4cc(F)cc(F)c4)C3)CC2)C1 (centres unmarked)"
experimental_readout = "IC50"
numeric_result = 6310

[[record]]
compound = "O=C(c1cnccn1)N1CCC(N2CCN(C3CCN(C(=O)c4cc(C(F)(F)F)cc(C(F)(F)F)c4)C(Cc4ccc(F)c(F)c4)C3)CC2)C1 (single isomer, unassigned)"
experimental_readout = "IC50"
numeric_result = 2000

[[record]]
compound = "CC(C(=O)N1CCC(N2CCN(C3CCN(C(=O)c4cc(C(F)(F)F)cc(C(F)(F)F)c4)C(Cc4ccc(Cl)c(Cl)c4)C3)CC2)C1)c1ccccc1 (centres unmarked)"
experimental_readout = "IC50"
numeric_result = 2510

[[record]]
compound = "O=C(c1sccc1CO)N1CCC(N2CCN([C@H]3CCN(C(=O)c4cc(C(F)(F)F)cc(C(F)(F)F)c4)[C@H](Cc4ccccc4)C3)CC2)C1 (some centres unmarked)"
experimental_readout = "IC50"
numeric_result = 3980

[[record]]
compound = "O=C(Cc1ccco1)N1CCC(N2CCN([C@H]3CCN(C(=O)c4cc(C(F)(F)F)cc(C(F)(F)F)c4)[C@H](Cc4ccccc4)C3)CC2)C1 (some centres unmarked)"
experimental_readout = "IC50"
numeric_result = 5010

